The values you see were collected from ChEMBL document CHEMBL2311253.

Molecular target: Muscarinic acetylcholine receptor M1 (Homo sapiens)
Sequence (P11229 whole entry): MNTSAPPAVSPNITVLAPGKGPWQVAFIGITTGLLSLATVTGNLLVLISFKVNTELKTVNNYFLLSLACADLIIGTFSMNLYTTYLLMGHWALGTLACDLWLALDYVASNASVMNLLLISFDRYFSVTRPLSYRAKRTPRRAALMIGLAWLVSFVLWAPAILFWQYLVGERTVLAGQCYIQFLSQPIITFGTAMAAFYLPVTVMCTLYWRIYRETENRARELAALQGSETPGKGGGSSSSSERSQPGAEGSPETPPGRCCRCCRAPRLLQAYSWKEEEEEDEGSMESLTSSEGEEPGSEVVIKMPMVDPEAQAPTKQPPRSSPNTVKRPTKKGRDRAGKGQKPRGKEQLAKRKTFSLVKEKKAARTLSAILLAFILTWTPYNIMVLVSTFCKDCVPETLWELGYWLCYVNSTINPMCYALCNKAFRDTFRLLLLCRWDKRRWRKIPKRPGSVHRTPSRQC
Test: Positive allosteric modulator activity at human muscarinic M1 receptor by calcium mobilization assay
pEC50: −log10 of the molar value.
Listed here: items and their measured pEC50.

Known results for compounds:
compound="Cn1cc(-c2ccc(CN3C(=O)C(O)(CF)c4ccccc43)c(F)c2)cn1 (racemic)" value_measured="< 5.00"
compound="Cn1cc(-c2ccc(CN3C(=O)C[S+]([O-])c4ccccc43)c(F)c2)cn1 (stereo unspecified)" value_measured="< 5.00"
compound=Cn1cc(-c2ccc(CN3C(=O)OCc4ccccc43)c(F)c2)cn1 value_measured="< 5.00"

Task: Please report pEC50 with Muscarinic acetylcholine receptor M1 (Homo sapiens) for item "Cn1cc(-c2ccc(CN3C(=O)CSc4ccccc43)c(F)c2)cn1" .
Result: 5.49

Task: Please report pEC50 with Muscarinic acetylcholine receptor M1 (Homo sapiens) for item CCn1cc(-c2ccc(CN3C(=O)C(O)(C(F)(F)F)c4ccccc43)c(F)c2)cn1 (racemic) .
Result: 5.48

Task: Please report pEC50 with Muscarinic acetylcholine receptor M1 (Homo sapiens) for item Cn1cc(-c2ccc(CN3C(=O)C(O)(C(F)(F)F)c4ccccc43)cc2)cn1 (racemic) .
Result: 5.40

Task: Please report pEC50 with Muscarinic acetylcholine receptor M1 (Homo sapiens) for item Cn1cc(-c2ccc(CN3C(=O)C(C)(O)c4ccccc43)c(F)c2)cn1 (racemic) .
Result: < 5.00
